Attribution: PubChem BioAssay AID1117319

Some molecules, each annotated with its measured IC50.
Biological target: Virion infectivity factor (Human immunodeficiency virus type 1 group M subtype B (isolate BH10)) + Virion infectivity factor (Human immunodeficiency virus type 1 group M subtype B (isolate BRU/LAI)) + Virion infectivity factor (Human immunodeficiency virus type 1 group M subtype B (isolate PCV12)) + Virion infectivity factor (Human immunodeficiency virus type 1 group M subtype B (isolate HXB2)) + DNA dC->dU-editing enzyme APOBEC-3G (Homo sapiens) (UniProt P69720+P69721+P69722+P69723+Q9HC16)
Assay: HIV-1 Vif–A3G interaction blockers – biochemical, TR-FRET, GST-Vif 1-94, biotin-A3G peptide, dose response retest, primary screen (AID 1117319);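 note: Vif residues 1-94 fused to GST binding biotinylated APOBEC3G peptide 110-148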
Details: TR-FRET GST-Vif / biotin-A3G peptide binding
Records with an inconclusive call do not appear.

# count of solved cases: 5
CCOC(=O)C1=C(N)n2c(s/c(=C\c3ccco3)c2=O)=C(C(=O)OCC)C1c1ccco1 (stereo not given)    1.41 µM
N#Cc1c(N)sc(=S)c2c1CCCCC2    4.22 µM
CN=c1scc(C)n1/N=C/c1ccc(O)c(O)c1O    < 1.84 µM
CN(C)S(=O)(=O)c1cccc(NC(=S)N/N=C/c2ccc(O)c(O)c2O)c1    1.88 µM
O=c1cc2oc3cc(O)c(O)cc3c(-c3ccccc3O)c-2cc1O    0.84 µM

Name the reported IC50 value associated with the molecule Cn1cnnc1SCC(=O)Nc1ncc([N+](=O)[O-])s1 36.1 µM

Which IC50 value belongs to COC(=O)CCC(=O)OC1(C)C(=O)C2=COC(c3ccc(OC)cc3)=CC2=C(Br)C1=O (stereo not given) ? 13.7 µM

// returns reported IC50 for input Cc1ccc(C)c2[nH]c(=O)c(CN(Cc3ccc4c(c3)OCO4)Cc3nnnn3Cc3ccco3)cc12 12.4 µM
